Tested on: human red blood cells (hRBCs)
Experiment: Hemolytic activity assay
Format: cell-based
Details: 500 µg/mL peptide (highest concentration tested); 4% hRBC suspension in PBS pH 7.4, 37 °C, 1 h, absorbance 415 nm; relative to 0.1% Triton X-100
Ends that are not written are not given here.
observation-type: Hemolytic activity (%)
Numeric answer only, unit % assumed.

substance	target-of-assay	Hemolytic activity / %
KKILGGMAKAVRWW-NH2 [compound 9]	human red blood cells (hRBCs)	2.39
VHKLAKGIFKRWW-NH2 [compound 12]	human red blood cells (hRBCs)	1.67
KIQKKIIKKIGRWW-NH2 [compound 6]	human red blood cells (hRBCs)	2.35

Moving on to the next substance.
query: State the recorded Hemolytic activity for this entry: GWINIIKIQKKRWW-NH2 [compound 3]
result: 7.74
